Molecular target: ScRvs167
Test: SPOT peptide array binding signal intensity (averaged, normalized) (arbitrary units (background-subtracted, floor 0; scale differs between SH3 domains)); higher = stronger binding of the SH3 domain to the peptide
parameter_measured: SPOT peptide array binding signal intensity
Give only the figure.

binder=RKRRTHLRLPLIRSN recorded_result=16.8
binder=NPLPKEPRLPKRKVA recorded_result=1460
binder=RRRIAYPFYPFKKLG recorded_result=13.3
binder=KTRLRPAFIQQLWSS recorded_result=13
binder=NFLRLLIGLPSQNEL recorded_result=11.7
binder=PPLPRAPPVPPATFE recorded_result=33.5
binder=RFKRHRLEFPFNESE recorded_result=25.3
binder=NQARKPFLLPATELS recorded_result=4.67
binder=TTNRGPPPLPPRANV recorded_result=2870
binder=FLIKFTPKFPQSIDH recorded_result=47

# SPOT peptide array binding signal intensity (binder: `SLSRRRFSLPSMPNV` ) is 37.3

Notebook: `VQQDSLPKLPFRSWG` , SPOT peptide array binding signal intensity read as 2720
